- testName: qHTS of pediatric cancer cell lines to identify multiple opportunities for drug repurposing: Primary screen for SK-N-SH cells (AID 1347098); also: nearly all actives have a fitted effect of over 65% in size
- conditionNotes: SK-N-SH viability, CellTiter-Glo luminescence, 48 h; series mostly up to 57 µM
Records with an inconclusive call do not appear. Activity calls are given as the source filed them. Calls follow the shape of the dose curve; as a rule, active = well fitted cell-killing curve with a large enough effect; inconclusive = small, poorly fitted or top-dose-only effect; inactive = no such curve, though single readings can be large or run the other way.
Valid outcomes are listed here; reply with one: active, inactive

INSERT INTO assay_data (compound, assignedlabel) VALUES
  ('CCN(CC)CC(=O)Nc1c(C)cccc1C(=O)OC', 'inactive'),
  ('CCCCNc1ccc(C(=O)OCCN(CC)CC)cc1', 'inactive'),
  ('O=C(O)CCCC[C@@H]1SC[C@@H]2NC(=O)N[C@@H]21', 'inactive'),
  ('CO/N=C(/C(=O)N[C@@H]1C(=O)N2C(C(=O)OCOC(=O)C(C)(C)C)=C(C)CS[C@H]12)c1csc(N)n1', 'inactive'),
  ('O=C(O)c1ccc(OCCN2CCCCC2)cc1', 'inactive');

Please let me know the test result on file for COC(=O)/C=C(/C)N .
inactive

Field entry: CCOC(=O)C(=O)c1csc(NC=O)n1
inactive

Field entry: CCOc1ccc(NS(=O)(=O)c2ccc(N)cc2)nn1
inactive

Field entry: O=C(O)[C@H](O)[C@@H](O)[C@H](O[C@@H]1O[C@H](CO)[C@H](O)[C@H](O)[C@H]1O)[C@H](O)CO
inactive

Field entry: O=C(Nc1ccc(Cl)cc1)Nc1ccc(Cl)c(C(F)(F)F)c1
active

Field entry: NS(=O)(=O)c1cc2c(cc1Cl)CN(C1CCCCC1)C2=O
inactive

Field entry: CCCCCCCCCCCCCCCC[n+]1ccccc1
active

Field entry: O=C(O)CCC(=O)OC[C@@H](NC(=O)C(Cl)Cl)[C@H](O)c1ccc([N+](=O)[O-])cc1
inactive

Field entry: O=C(CCCl)NCc1ccccc1
inactive

Field entry: CCCCC(CC)CNC(=O)CC(C)OC(=O)CCC(=O)O (stereo not drawn)
inactive

* * *

- testName: Drug repurposing screens with cells derived from glioblastoma tumor samples (AID 1345199); also: % is scaled to controls: 0 for no effect and ±100 for the full control effect; nearly all actives have a fitted effect of over 40% in size
- conditionNotes: GBM patient neurospheres viability, ATP luminescence, 48 h; at 45.9 µM (top of the series); tumour line B
Records with an inconclusive call do not appear. Calls of active or inactive are those of the source. Calls follow the shape of the dose curve; as a rule, active = well fitted inhibition curve with a large enough effect; inconclusive = small, poorly fitted or top-dose-only effect; inactive = flat fitted curve, though single readings scatter.
quantityKind: activity, negative = cell killing

INSERT INTO measurements (compound, quantitykind, valuemeasured) VALUES
  ('CCCCCC1Nc2cc(C(F)(F)F)c(S(N)(=O)=O)cc2S(=O)(=O)N1 (stereo unspecified)', 'activity, negative = cell killing', '-8.57% (inactive)');

Fill in: activity, negative = cell killing of O=C(O)Cc1ccc(OCCNC[C@H](O)c2ccccc2)cc1 is ___
-8.45% (inactive)

Field entry: CCCc1c2oc(C(=O)O)cc(=O)c2cc2c(=O)cc(C(=O)O)n(CC)c12
-3.36% (inactive)

Field entry: CC(=O)N[C@@H](CCC(N)=O)C(=O)O
-17.6% (inactive)

Field entry: O=C(O)c1ccccc1Nc1cc(Cl)ccc1C(=O)O
-6.14% (inactive)

Field entry: Nc1nnnn1-c1ccccc1
-11.1% (inactive)

* * *

- Test system: UISO
- testName: qHTS assay to identify novel small-molecules to repurpose for Merkel cell carcinoma treatment (AID 1296009); also: nearly all actives have a fitted effect of over 60% in size
- conditionNotes: MCC and control cell lines, CellTiter-Glo viability, 72 h; series mostly up to 46 µM
- Text: MCC is a rare and aggressive neuroendocrine skin cancer with limited treatment options. Approximately 80% of MCCs have the Merkel cell polyomavirus (MCPyV) DNA integrated into the host genome (virus-positive: VP-MCC) and viral oncogenes drive oncogenesis. The remaining MCCs are virus-negative (VN-MCC) and are caused by UV mutagenesis. […] Using cell viability as a readout (CellTiter-Glo assay) we found both overlapping and distinct drugs that can be repurposed for the treatment of VP-MCC and VN-MCC. […]
Records with an inconclusive call do not appear. Active and inactive are the calls of the source. Calls follow the shape of the dose curve; as a rule, active = well fitted inhibition curve with a large enough effect; inconclusive = small, poorly fitted or top-dose-only effect; inactive = flat fitted curve, though single readings scatter.
Valid outcomes are listed here; reply with one: t (active), f (inactive)

INSERT INTO assay_data (compound, assignedlabel) VALUES
  ('CSCC[C@H](NC(=O)[C@H](Cc1c[nH]c2ccccc12)NC(=O)CCNC(=O)OC(C)(C)C)C(=O)N[C@@H](CC(=O)O)C(=O)N[C@@H](Cc1ccccc1)C(N)=O', 'f'),
  ('C1=CC2C3C=CC(C3)C2C1 (stereo not drawn)', 'f');

Shift focus to the following entry.
Please let me know the test result on file for CCCCCCCCCCCCCCCC[n+]1ccccc1 .
t
